Cited source: patent US20160115500A1

Target: T1, GAL4 activation domain fusion (ACT) to HAB1 (UniProt Q9CAJ0 23-511, limits assumed)
T1 construct: pACT-HAB1 fusion in yeast reporter strains; also called pACT-HAB1
T1 sequence (looked up): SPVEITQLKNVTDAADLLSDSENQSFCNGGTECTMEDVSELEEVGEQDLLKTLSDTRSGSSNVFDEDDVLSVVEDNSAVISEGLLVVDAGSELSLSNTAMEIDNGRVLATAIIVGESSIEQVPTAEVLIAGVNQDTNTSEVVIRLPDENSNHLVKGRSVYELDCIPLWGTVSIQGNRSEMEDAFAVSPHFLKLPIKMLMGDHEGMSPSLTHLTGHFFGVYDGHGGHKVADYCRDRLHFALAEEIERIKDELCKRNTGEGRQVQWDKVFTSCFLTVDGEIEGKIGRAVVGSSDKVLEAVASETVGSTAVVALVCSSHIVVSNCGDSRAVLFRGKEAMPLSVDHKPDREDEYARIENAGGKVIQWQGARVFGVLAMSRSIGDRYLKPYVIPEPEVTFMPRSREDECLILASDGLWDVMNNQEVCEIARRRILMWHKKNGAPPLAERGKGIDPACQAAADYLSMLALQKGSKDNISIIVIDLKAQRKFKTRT
Test: yeast two-hybrid, X-gal; lowest benzothiadiazole concentration giving signal
binders and their reported Threshold
Write it as a number; the unit µM goes unstated.

PYR1^K59R,A89C,A160G (receptor, not shown: small tags and cut ends, pBD-PYR1 fusion in yeast) MPSELTPEERSELKNSIAEFHTYQLDPGSCSSLHAQRIHAPPELVWSIVRRFDKPQTYRHFIKSCSVEQNFEMRVGCTRDVIVISGLPCNTSTERLDILDDERRVTGFSIIGGEHRLTNYKSVTTVHRFEKENRIWTVVLESYVVDMPEGNSEDDTRMFGDTVVKLNLQKLATVAEAMARNSGDGSGSQVT :: 5

Now, please, on to the next binder.
Looking for the measured Threshold of PYR1^K59R,E141K (receptor, not shown: small tags and cut ends, pBD-PYR1 fusion in yeast) MPSELTPEERSELKNSIAEFHTYQLDPGSCSSLHAQRIHAPPELVWSIVRRFDKPQTYRHFIKSCSVEQNFEMRVGCTRDVIVISGLPANTSTERLDILDDERRVTGFSIIGGEHRLTNYKSVTTVHRFEKENRIWTVVLKSYVVDMPEGNSEDDTRMFADTVVKLNLQKLATVAEAMARNSGDGSGSQVT , can you help? 100
